test_target: T1, human PD-1 on Jurkat cells (Jurkat+hPD-1) (human, UniProt Q15116 21-185)
T1 construct: extracellular domain and a portion of the transmembrane domain, stably expressed on Jurkat cells
T1 sequence (Q15116 21-185 limits assumed): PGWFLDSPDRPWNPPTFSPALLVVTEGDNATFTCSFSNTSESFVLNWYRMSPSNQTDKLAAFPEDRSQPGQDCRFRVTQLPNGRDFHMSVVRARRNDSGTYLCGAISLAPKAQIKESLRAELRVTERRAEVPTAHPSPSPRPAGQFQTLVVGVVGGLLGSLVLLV
assay_notes: flow cytometry on Jurkat cells expressing hPD-1
pEC50: −log10 of the molar value.
Recorded pEC50, one value per entry.

binder: D12-hIgG4 (antibody, V domains shown) VH: DVQLVESGGGLVQPGGSLRLSCAASGFTFDISAMSWVRQAPGKGLEWVSTISGSAYSTYYADSVKGRFTISRDNSKSTLYLQMNSLRAEDTAVYYCAREIFSDYWGLGTLVTVSS VL: QSVLTQPPSASGTPGQRVTISCSGNTSNIGRESVYWYQQLPGTAPKLLIYSNVQRPSGVPDRFSGSKSGTSASLAISGLQSEDEADYYCGTWDDSLNGWVFGGGTKLTVLG
pEC50: 8.01

binder: C51E6-5-hIgG4 (antibody, V domains shown) VH: QVQLVQSGSELKKPGASVKVSCKASGYSLYGTSMHWVRQAPGQGLEWMGYISPFTGRATYAQGFTGRFVFSLDTSVSTAYLQISSLKAEDTAVYYCARDYDYRYYYAMDYWGQGTTVTVSS VL: EIVLTQSPDFQSVTPKEKVTITCTASESVPPQFLHWYQQKPDQSPKLLIYASRERASGVPSRFSGSGSGTDFTLTINSLEAEDAATYYCHQFHRSPLTFGGGTKLEIKR
pEC50: 8.69

binder: OMC.1.B6-hIgG4 (antibody, V domains shown) VH: EVQLLESGGGLVQPGGSLRLSCAASGFTFSSNYMSWVRQAPGKGLEWVSAISSSGGTIFYADSVKGRFTISRDNSKNTLYLQMNSLRAEDTAVYYCAKHKWNAVYYDGMDVWGQGTTVTVSS VL: QSVLTQPPSASGTPGQRVTISCSGSNSNIGRNLVNWYQQLPGTAPKLLIYTIDQRPSGVPDRFSGSKSGTSASLVISGLQSEDEADYYCAAWDGSLNAWVFGGGTKLTVLG
pEC50: 8.13

Data credit: patent US20240076343A1
